# STUDY TARGET: Nuclear factor NF-kappa-B p105 subunit (Homo sapiens)
# ASSAY EXPLANATION: In vitro inhibitory activity against human Jurkat T-Cells stably transfected with an Nuclear factor kappa B transcription factor
ENDPOINT NAME: IC50 (µM)

Worked examples, 2 compounds total:
In [3]: df
Out[3]:
                                smiles_text  endpoint_name  test_value
0  O=C(OC1CCCCC1)c1cc(NC(=O)c2cnc(Cl)nc2C(F)(F)F)cc(C(F)(F)F)c1           IC50         1.8
1  CCCCCCCCOC(=O)c1cc(NC(=O)c2cnc(Cl)nc2C(F)(F)F)cc(C(F)(F)F)c1           IC50         1.8

A = CCCCCCOC(=O)c1cc(NC(=O)c2cnc(Cl)nc2C(F)(F)F)cc(C(F)(F)F)c1
B = CN(C(=O)c1cnc(Cl)nc1C(F)(F)F)c1cc(Cl)cc(Cl)c1
C = COc1cc(NC(=O)c2cnc(Cl)nc2C(F)(F)F)cc(OC)c1
D = CCCCOC(=O)c1cc(NC(=O)c2cnc(Cl)nc2C(F)(F)F)cc(C(F)(F)F)c1
E = O=C(Nc1ccc(C(F)(F)F)cc1)c1cnc(Cl)nc1C(F)(F)F
Query :: Sequence the entries by IC50, beginning with the highest number. # answer = labels listed in requested order
Result :: B, C, A, E, D

====

# STUDY TARGET: Nuclear factor NF-kappa-B p105 subunit (Homo sapiens, UniProt P19838)
# Sequence (P19838 whole entry): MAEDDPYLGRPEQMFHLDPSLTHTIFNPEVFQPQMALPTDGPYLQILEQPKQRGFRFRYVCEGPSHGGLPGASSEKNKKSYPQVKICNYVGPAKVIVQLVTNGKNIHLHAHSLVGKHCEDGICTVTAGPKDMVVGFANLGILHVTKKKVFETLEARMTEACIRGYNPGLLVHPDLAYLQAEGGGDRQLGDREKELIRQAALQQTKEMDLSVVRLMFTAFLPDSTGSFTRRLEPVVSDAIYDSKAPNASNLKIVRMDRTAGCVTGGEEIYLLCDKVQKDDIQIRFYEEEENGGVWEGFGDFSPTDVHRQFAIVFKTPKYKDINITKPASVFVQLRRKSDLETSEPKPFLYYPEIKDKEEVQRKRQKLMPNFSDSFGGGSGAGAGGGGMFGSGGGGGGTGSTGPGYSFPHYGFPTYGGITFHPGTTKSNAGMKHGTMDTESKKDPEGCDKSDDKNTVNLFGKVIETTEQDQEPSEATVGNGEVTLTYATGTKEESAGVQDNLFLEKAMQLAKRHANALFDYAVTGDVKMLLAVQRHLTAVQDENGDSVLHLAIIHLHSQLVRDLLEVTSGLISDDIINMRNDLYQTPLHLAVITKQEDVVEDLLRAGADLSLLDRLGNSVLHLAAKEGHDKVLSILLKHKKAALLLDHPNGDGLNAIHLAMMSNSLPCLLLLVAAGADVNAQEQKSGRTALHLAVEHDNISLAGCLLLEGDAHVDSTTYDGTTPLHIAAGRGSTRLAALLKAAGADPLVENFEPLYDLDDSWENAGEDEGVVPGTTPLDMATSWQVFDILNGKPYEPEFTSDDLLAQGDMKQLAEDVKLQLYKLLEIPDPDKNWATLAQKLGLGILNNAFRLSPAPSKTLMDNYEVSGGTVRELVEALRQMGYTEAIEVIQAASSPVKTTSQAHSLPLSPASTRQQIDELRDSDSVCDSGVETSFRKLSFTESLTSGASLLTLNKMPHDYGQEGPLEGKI
# ASSAY EXPLANATION: In vitro inhibitory activity against human Jurkat T-Cells stably transfected with an Nuclear factor kappa B transcription factor
# Lookup of reported IC50 keyed by entry

Known IC50 results, listed for orientation:
>>> print(df.to_string())
                                smiles_text  test_value
0  CN(C)c1ncc(C(=O)Nc2cc(Cl)cc(Cl)c2)c(C(F)(F)F)n1     > 10 µM
1  O=C(Nc1cc(Cl)cc(Cl)c1)c1cnc(NC2CCCCC2)nc1C(F)(F)F     > 10 µM

Continue with the next molecule.
Query :: Would you kindly share the measured IC50 for `CCCCNC(=O)c1cnc(Cl)nc1C(F)(F)F` ?
Result :: > 10 µM

The origin of these recorded values is BindingDB's records for doi:10.1021/jm970671g.
